# Test system: corn planthopper (Peregrinus maidis)
# Type: in vivo
# measurement_setup: in vivo
Recorded measurements of Percent Mortality, Observed, Cmpd A, one per entry
experimental_readout: Percent Mortality, Observed, Cmpd A (%)

| compound | assay_result |
| --- | --- |
| CC1=NNC(=O)N(/N=C/c2cccnc2)C1 | 76 |
| CCOC(=O)OC1=C(c2cc(C)ccc2C)C(=O)N[C@]12CC[C@@H](OC)CC2 | 65 |
| COc1cccc(C(=O)NN(C(=O)c2cc(C)cc(C)c2)C(C)(C)C)c1C [methoxyfenozide] | 33 |
| CNC(=O)c1cc(C#N)cc(C)c1NC(=O)c1cc(Br)nn1-c1ncccc1Cl | 67 |
| CC1(C)[C@H](C(=O)O[C@H](C#N)c2cccc(Oc3ccccc3)c2)[C@@H]1/C=C(\Cl)C(F)(F)F (racemic) | 45 |
| Cc1cc(C(F)(C(F)(F)F)C(F)(F)F)ccc1NC(=O)c1cccc(I)c1C(=O)NC(C)(C)CS(C)(=O)=O [flubendiamide] | 42 |
| N#C/N=C1\SCCN1Cc1ccc(Cl)nc1 | 60 |
| CC(COc1ccc(Oc2ccccc2)cc1)Oc1ccccn1 (centres unmarked) | 20 |

---

# Tested on: corn planthopper (Peregrinus maidis)
# Assay type: in vivo
# measurement_setup: in vivo
Percent Mortality, Observed, Cmpd A values, listed per item

| compound | measurement_unit | Percent Mortality, Observed, Cmpd A |
| --- | --- | --- |
| CN/C(=N/CC1CCOC1)N[N+](=O)[O-] (centres unmarked) | % | 42 |
| CNC(=O)O/N=C(\SC)C(=O)N(C)C | % | 32 |
| CCOCn1c(-c2ccc(Cl)cc2)c(C#N)c(Br)c1C(F)(F)F | % | 81 |
| FC(F)(F)c1ccc(OCCCOc2c(Cl)cc(OCC=C(Cl)Cl)cc2Cl)nc1 | % | 62 |
| CN1COCN(Cc2cnc(Cl)s2)/C1=N\[N+](=O)[O-] | % | 29 |

---

# Tested on: corn planthopper (Peregrinus maidis)
# Type: in vivo
# measurement_setup: in vivo

| compound | Percent Mortality, Observed, Cmpd A / % |
| --- | --- |
| CCOP(=S)(OCC)Oc1nc(Cl)c(Cl)cc1Cl | 48 |
| N#CCNC(=O)c1cnccc1C(F)(F)F | 70 |
| CC(C)N1C(=O)N(c2ccccc2)CS/C1=N\C(C)(C)C | 44 |
| CS/C(C)=N\OC(=O)N(C)SN(C)C(=O)O/N=C(\C)SC | 64 |
| C/C(=N\C#N)N(C)Cc1ccc(Cl)nc1 | 32 |
| CNC(=O)c1cc(Cl)cc(C)c1NC(=O)c1cc(Br)nn1-c1ncccc1Cl | 33 |
| N#Cc1nn(-c2c(Cl)cc(C(F)(F)F)cc2Cl)c(N)c1[S+]([O-])C(F)(F)F (stereo not shown) | 21 |
| CCc1nn(C)c(C(=O)NCc2ccc(Oc3ccc(C)cc3)cc2)c1Cl | 98 |
| CNC(=O)ON=C(C)SC | 80 |
| CN(C)C(CSC(N)=O)CSC(N)=O | 40 |

---

# System: green peach aphid (Myzus persicae)
# Assay type: in vivo
# measurement_setup: in vivo
In this section we review reported Percent Mortality, Observed, Cmpd A values for a set of molecules.
experimental_readout: Percent Mortality, Observed, Cmpd A

| molecule | assay_result |
| --- | --- |
| CNC(=O)c1cc(Cl)cc(C)c1NC(=O)c1cc(Br)nn1-c1ncccc1Cl [chlorantraniliprole] | 11% |
| N#Cc1nn(-c2c(Cl)cc(C(F)(F)F)cc2Cl)c(N)c1[S+]([O-])C(F)(F)F (stereo not shown) [fipronil] | 87% |
| Cc1cc(C(F)(C(F)(F)F)C(F)(F)F)ccc1NC(=O)c1cccc(I)c1C(=O)NC(C)(C)CS(C)(=O)=O [flubendiamide] | 5% |
| CC(C)N1C(=O)N(c2ccccc2)CS/C1=N\C(C)(C)C [buprofezin] | 14% |

---

# Tested on: green peach aphid (Myzus persicae)
# Format: in vivo
# measurement_setup: in vivo
experimental_readout: Percent Mortality, Observed, Cmpd A

| compound | assay_result |
| --- | --- |
| CCOP(=S)(OCC)Oc1nc(Cl)c(Cl)cc1Cl | 18% |
| CCOCn1c(-c2ccc(Cl)cc2)c(C#N)c(Br)c1C(F)(F)F | 54% |
| CN/C(=N\[N+](=O)[O-])NCc1cnc(Cl)s1 | 16% |
| C/C(=N\C#N)N(C)Cc1ccc(Cl)nc1 | 9% |
| CN1COCN(Cc2cnc(Cl)s2)/C1=N\[N+](=O)[O-] | 40% |
| O=C(NC(=O)c1c(F)cccc1F)Nc1ccc(OC(F)(F)C(F)OC(F)(F)F)c(Cl)c1 (centres unmarked) | 7% |
| CS/C(C)=N\OC(=O)N(C)SN(C)C(=O)O/N=C(\C)SC | 25% |
| CNC(=O)ON=C(C)SC | 28% |
| COC(=O)N(C(=O)N1CO[C@@]2(C(=O)OC)Cc3cc(Cl)ccc3C2=N1)c1ccc(OC(F)(F)F)cc1 | 32% |
| N#CCNC(=O)c1cnccc1C(F)(F)F | 14% |
| CCc1nn(C)c(C(=O)NCc2ccc(Oc3ccc(C)cc3)cc2)c1Cl | 77% |
| CC1(C)[C@H](C(=O)O[C@H](C#N)c2cccc(Oc3ccccc3)c2)[C@@H]1/C=C(\Cl)C(F)(F)F (racemic) | 39% |
| N#C/N=C1\SCCN1Cc1ccc(Cl)nc1 | 12% |
| CC(COc1ccc(Oc2ccccc2)cc1)Oc1ccccn1 (centres unmarked) | 10% |
| COc1cccc(C(=O)NN(C(=O)c2cc(C)cc(C)c2)C(C)(C)C)c1C [methoxyfenozide] | 16% |
| CNC(=O)O/N=C(\SC)C(=O)N(C)C | 23% |
| CCOC(=O)OC1=C(c2cc(C)ccc2C)C(=O)N[C@]12CC[C@@H](OC)CC2 | 8% |

---

# System: corn planthopper (Peregrinus maidis)
# Format: in vivo
# measurement_setup: in vivo
Reported Percent Mortality, Observed, Cmpd A values follow for various molecules
experimental_readout: Percent Mortality, Observed, Cmpd A (%)

| molecule | measurement_unit | assay_result |
| --- | --- | --- |
| CN/C(=N\[N+](=O)[O-])NCc1cnc(Cl)s1 | % | 35 |
| O=C(NC(=O)c1c(F)cccc1F)Nc1ccc(OC(F)(F)C(F)OC(F)(F)F)c(Cl)c1 (stereo not drawn) | % | 51 |
| COC(=O)N(C(=O)N1CO[C@@]2(C(=O)OC)Cc3cc(Cl)ccc3C2=N1)c1ccc(OC(F)(F)F)cc1 | % | 21 |

---

# Test system: green peach aphid (Myzus persicae)
# Format: in vivo
# measurement_setup: in vivo
Rule: Percent Mortality, Observed, Cmpd A of 20% or more gives Condition met; anything lower gives Condition not met.

| compound | category |
| --- | --- |
| CN(C)C(CSC(N)=O)CSC(N)=O [cartap] | Condition not met |
| CC1=NNC(=O)N(/N=C/c2cccnc2)C1 [pymetrozine] | Condition met |
| CN/C(=N/CC1CCOC1)N[N+](=O)[O-] (centres unmarked) [dinotefuran] | Condition met |
| CNC(=O)c1cc(C#N)cc(C)c1NC(=O)c1cc(Br)nn1-c1ncccc1Cl [cyantraniliprole] | Condition not met |
| FC(F)(F)c1ccc(OCCCOc2c(Cl)cc(OCC=C(Cl)Cl)cc2Cl)nc1 [pyridalyl] | Condition not met |
